# System: U2OS
# assay-name: Multiplex assay against U2OS
# Assay type: toxicity, cell-based
# recorded-conditions: human, 48 h, 1 µM, compound concentration 1 uM, replicate 1
Hi! Could you tag entries with Population Mitochondria Different-Phenotype (%) below 3% as true, and those at or above as false? Much appreciated.

Observe how each entry below is paired with its result.
[
  {
    "compound": "Nc1nc(-c2ccco2)c2cnn(Cc3ccccc3F)c2n1",
    "category-label": "true"
  },
  {
    "compound": "Cc1sc2c(c1C)C(c1ccc(Cl)cc1)=N[C@H](CC(=O)OC(C)(C)C)c1nnc(C)n1-2",
    "category-label": "true"
  },
  {
    "compound": "COc1cc2nc(N3CCN(C(=O)c4ccco4)CC3)nc(N)c2cc1OC.Cl [PRAZOSIN HYDROCHLORIDE]",
    "category-label": "true"
  },
  {
    "compound": "Cc1cc(O)c(-c2ccc([C@@H](C)CN(C)C)cc2)c2c1[nH]c(=O)c1sccc12",
    "category-label": "false"
  },
  {
    "compound": "CN1CCN(c2ccc(Nc3c4ccccc4nc4ccccc34)cc2)CC1.Cl.Cl.O",
    "category-label": "false"
  }
]

Challenge: Quick check: Population Mitochondria Different-Phenotype (%) of CSc1nc(NC2CCCC2)c([N+](=O)[O-])c(NC2CCCC2)n1 [GS-39783] under 3%?
Response given: true
